# assay-method-text: BSK_CASM3C_Proliferation: Cell Proliferation Assessment in the BioMAP Diversity Plus: CASM3C Assay (AID 2283047);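 further: sulforhodamine B total protein stain as relative cell number at 560 nm; sub-confluent cells exposed 48 h before staining; fitted both ways against DMSO so gain or loss of cell number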
# stated-conditions: primary human coronary artery smooth muscle cells
Calls of active or inactive are those of the source. How the source made its calls: active means hit-call score of the fitted dose curve at least 0.9, where 1 is the maximum; inactive means score below 0.9.
Classes used: Yes = active, No = inactive

>  <compound>
C=CC(=O)OCC(CC)(COC(=O)C=C)COC(=O)C=C

>  <cat>
Yes

$$$$
>  <compound>
O=S1(=O)OCC2C(CO1)C1(Cl)C(Cl)=C(Cl)C2(Cl)C1(Cl)Cl (stereo not drawn)

>  <cat>
Yes

$$$$
>  <compound>
FC(F)(F)C(F)(C(F)(F)F)C(F)(F)C(F)(F)CC1CO1 (stereo not drawn)

>  <cat>
No

$$$$
>  <compound>
N#Cc1cc([N+](=O)[O-])ccc1N

>  <cat>
No

$$$$
>  <compound>
OCC(F)(F)OC(F)(F)C(F)(F)OC(F)(F)CO

>  <cat>
No

$$$$
>  <compound>
CN(C)C(=O)Cl

>  <cat>
No

$$$$
>  <compound>
OCC1CO1 (stereo not drawn)

>  <cat>
No

$$$$
>  <compound>
O=C(O)C1C(C(=O)O)C2(Cl)C(Cl)=C(Cl)C1(Cl)C2(Cl)Cl (stereo not drawn)

>  <cat>
No

$$$$
>  <compound>
O=C(O)C(F)(F)OC(F)(F)C(F)(F)OC(F)(F)F

>  <cat>
No

$$$$
>  <compound>
CCOP(=S)(OCC)SCn1nnc2ccccc2c1=O

>  <cat>
Yes

$$$$
>  <compound>
O=c1ssc(Cl)c1Cl

>  <cat>
Yes

$$$$
>  <compound>
CCOP(=S)(OCC)SCSc1ccc(Cl)cc1

>  <cat>
No

$$$$
>  <compound>
ClC(Cl)c1ccccc1

>  <cat>
No

$$$$
>  <compound>
CC(C)(C)c1ccc(O)cc1

>  <cat>
No

$$$$
>  <compound>
c1ccc2c(c1)sc1ccccc12

>  <cat>
No

$$$$
>  <compound>
CCC1(c2ccccc2)C(=O)N=C(O)NC1=O (stereo not drawn)

>  <cat>
No

$$$$
>  <compound>
CC(C)(C)OOC(C)(C)C

>  <cat>
No

$$$$
>  <compound>
COC(=O)C(F)(F)C(F)(F)OC(F)(C(F)(F)F)C(F)(F)OC(F)=C(F)F (stereo not drawn)

>  <cat>
No

$$$$
>  <compound>
ClC(Cl)=C(c1ccc(Cl)cc1)c1ccccc1Cl

>  <cat>
Yes

$$$$
>  <compound>
c1nc[nH]n1

>  <cat>
No

$$$$
>  <compound>
CCOP(=S)(NC(C)C)Oc1ccccc1C(=O)OC(C)C (stereo not drawn)

>  <cat>
No

$$$$
>  <compound>
CCNc1nc(Cl)nc(NC(C)(C)C)n1

>  <cat>
Yes

$$$$
>  <compound>
O=S(=O)(F)C(F)(F)C(F)(F)C(F)(F)C(F)(F)C(F)(F)C(F)(F)C(F)(F)C(F)(F)F

>  <cat>
No

$$$$
>  <compound>
CC(Cl)(Cl)C(=O)O

>  <cat>
No

$$$$
>  <compound>
Cc1ccc2c(c1N)C(=O)c1ccccc1C2=O

>  <cat>
No

$$$$
>  <compound>
Cc1cccc(N)c1

>  <cat>
No

$$$$
>  <compound>
CC(O)C(F)(F)C(F)(F)F (stereo not drawn)

>  <cat>
No

$$$$
>  <compound>
CCCCOCCOP(=O)(OCCOCCCC)OCCOCCCC

>  <cat>
No

$$$$

---

# assay-method-text: STM_H9_OrnithineISnorm_perc: Stemina devTOX quickPredict H9 human embryonic stem cell (hESC)-based Assay for Ornithine (ORN) Metabolite Biomarker, Normalized (AID 2283712);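 further: ornithine released into spent medium during last day measured by mass spectrometry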
The source made the active and inactive calls. The calls were made as follows: active = hit-call score of the fitted dose curve at least 0.9, where 1 is the maximum; inactive = score below 0.9.

>  <compound>
CCC(C)(C)c1ccc(O)cc1

>  <AC50>
78.2 µM (active)

$$$$
>  <compound>
Nc1ccc2ccccc2c1

>  <AC50>
inactive

$$$$
>  <compound>
c1ccc2c(c1)Nc1ccccc1S2

>  <AC50>
inactive

$$$$
>  <compound>
O=C(O)C1C(C(=O)O)C2(Cl)C(Cl)=C(Cl)C1(Cl)C2(Cl)Cl (stereo not drawn)

>  <AC50>
inactive

$$$$
>  <compound>
O=C(O)C(Cl)Cl

>  <AC50>
inactive

$$$$
>  <compound>
O=P(Oc1ccccc1)(Oc1ccccc1)Oc1ccccc1

>  <AC50>
inactive

$$$$
>  <compound>
CCC1(c2ccccc2)C(=O)N=C(O)NC1=O (stereo not drawn)

>  <AC50>
0.0967 µM (active)

$$$$
>  <compound>
COCCOCCO

>  <AC50>
inactive

$$$$

---

# Read-out: Matrix Metallopeptidase 1 (MMP1), MMP1 (gene 4312)
# assay-method-text: BSK_MyoF_MMP1: BioMAP Diversity Plus: MyoF Assay for Matrix Metallopeptidase 1 (MMP1) Biomarker Activity (AID 2284268)
# stated-conditions: primary human lung fibroblasts
Calls of active or inactive are those of the source. How the source made its calls: active means hit-call score of the fitted dose curve at least 0.9, where 1 is the maximum; inactive means score below 0.9.
Classes used: 1.0 (active), 0.0 (inactive)

>  <molecule>
CC(O)C(F)(F)C(F)(F)F (stereo not drawn)

>  <cat>
0.0

$$$$
>  <molecule>
COP(N)(=S)OC

>  <cat>
0.0

$$$$
>  <molecule>
N#Cc1cc([N+](=O)[O-])ccc1N

>  <cat>
0.0

$$$$
>  <molecule>
C=CC(=O)OCC(CC)(COC(=O)C=C)COC(=O)C=C

>  <cat>
1.0

$$$$
>  <molecule>
CCOP(=S)(NC(C)C)Oc1ccccc1C(=O)OC(C)C (stereo not drawn)

>  <cat>
0.0

$$$$
>  <molecule>
CC(C)Nc1ccc(Nc2ccccc2)cc1

>  <cat>
0.0

$$$$
>  <molecule>
O=P(OCC(Br)CBr)(OCC(Br)CBr)OCC(Br)CBr (stereo not drawn)

>  <cat>
1.0

$$$$
>  <molecule>
Cc1ccc2c(c1N)C(=O)c1ccccc1C2=O

>  <cat>
0.0

$$$$

---

# assay-method-text: ATG_M_19_CIS: Attagene CIS-FACTORIAL HepG2 Assay for M19 Transcription Factor (Internal Marker) (AID 2282939)
# stated-conditions: HepG2 Attagene CIS-FACTORIAL M19 internal marker reporter; actives raise or lower the signal
The source made the active and inactive calls. Rule for the calls: active = hit-call score of the fitted dose curve at least 0.9, where 1 is the maximum; inactive = score below 0.9.

>  <compound>
Cc1ccc(O)cc1C

>  <outcome>
inactive

$$$$
>  <compound>
COP(=O)(O)OC

>  <outcome>
inactive

$$$$
>  <compound>
CCCCC(CC)COC(=O)c1c(Br)c(Br)c(Br)c(Br)c1C(=O)OCC(CC)CCCC (stereo not drawn)

>  <outcome>
inactive

$$$$

---

# assay-method-text: BSK_3C_uPAR: BioMAP Diversity Plus: 3C Assay for Urokinase-type plasminogen activator receptor (uPAR) Biomarker Activity (AID 2282998)
# stated-conditions: BioMAP 3C HUVEC, uPAR biomarker ELISA; actives raise or lower the signal
# Method: BSK_3C is a cell-based, multiplexed-readout assay that uses umbilical vein endothelium, a human vascular primary cell, with measurements taken at 24 hours after chemical dosing in a 96-well plate.BSK_3CAR is an assay component measured in the BSK_3C assay. It measures uPAR antibody related to regulation of gene expression using ELISA technology.Data from the assay component BSK_3CAR was analyzed into 1 assay endpoint. […]
Calls of active or inactive are those of the source. Rule for the calls: active = hit-call score of the fitted dose curve at least 0.9, where 1 is the maximum; inactive = score below 0.9.
Classes used: active, inactive

>  <smiles-input>
CCC(C)(C)c1ccc(O)cc1

>  <cat>
inactive

$$$$
>  <smiles-input>
CC(C)(C)OOC(C)(C)C

>  <cat>
inactive

$$$$
>  <smiles-input>
CCCCCCCc1ccc(O)cc1

>  <cat>
active

$$$$
>  <smiles-input>
O=C(O)C(F)(F)OC(F)(F)C(F)(F)OC(F)(F)C(=O)O

>  <cat>
inactive

$$$$
>  <smiles-input>
CC(C)Nc1ccc(Nc2ccccc2)cc1

>  <cat>
active

$$$$
>  <smiles-input>
O=C(O)C(F)(F)OC(F)(F)C(F)(F)OC(F)(F)F

>  <cat>
inactive

$$$$
>  <smiles-input>
CCCCN(CCCC)N=O

>  <cat>
inactive

$$$$
>  <smiles-input>
[N-]=[N+]=[N-]

>  <cat>
inactive

$$$$

---

# assay-method-text: ATG_ISRE_CIS: Attagene CIS-FACTORIAL HepG2 Assay for human Interferon Regulatory Factor 1 (IRF1) binding to an Interferon-Stimulated Response Element (ISRE) (AID 2282948)
# stated-conditions: HepG2 ISRE cis-reporter (Attagene), mRNA transcription readout; actives raise or lower the signal
Active and inactive are the calls of the source. The calls were made as follows: active = hit-call score of the fitted dose curve at least 0.9, where 1 is the maximum; inactive = score below 0.9.
Classes used: true (active), false (inactive)

>  <molecule>
N#Cc1c(-c2ccc(Cl)cc2)[nH]c(C(F)(F)F)c1Br

>  <cat>
true

$$$$
>  <molecule>
O=C(O)C=CC(F)(C(F)(F)F)C(F)(F)F

>  <cat>
false

$$$$
>  <molecule>
Nc1ccc2ccccc2c1

>  <cat>
false

$$$$
>  <molecule>
CO/N=C(/C(=O)OC)c1ccccc1COc1ccccc1C

>  <cat>
false

$$$$
>  <molecule>
CC(C)Nc1ccc(Nc2ccccc2)cc1

>  <cat>
true

$$$$
>  <molecule>
CC(Cl)CN(C)C (stereo not drawn)

>  <cat>
false

$$$$
>  <molecule>
NNC(N)=S

>  <cat>
false

$$$$
>  <molecule>
Cc1cccc(N)c1

>  <cat>
false

$$$$
